assayed_target: human JAK1 (Homo sapiens)
Construct: catalytic domain, amino acids 866-1154; catalog number PV4774
Sequence (P23458 866-1154): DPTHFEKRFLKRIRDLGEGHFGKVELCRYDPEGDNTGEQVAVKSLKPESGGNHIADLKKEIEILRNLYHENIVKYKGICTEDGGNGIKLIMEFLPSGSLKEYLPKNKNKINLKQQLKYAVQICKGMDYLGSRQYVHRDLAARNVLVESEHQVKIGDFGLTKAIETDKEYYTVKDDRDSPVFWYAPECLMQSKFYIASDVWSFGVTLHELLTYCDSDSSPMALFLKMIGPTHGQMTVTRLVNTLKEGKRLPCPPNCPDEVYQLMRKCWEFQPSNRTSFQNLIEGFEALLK
experiment: JAK1 inhibition assay (polyGT substrate / Ulight-JAK1 peptide)
settings: recombinant human JAK1 catalytic domain; polyGT or Ulight-JAK1 peptide assay
measured_parameter: IC50

                                    compound             assayed_target          result
 0  COc1ccc(COc2ccc(N(C)c3cc4c(cn3)ncn4C)c(C)c2)cc1  human JAK1 (Homo sapiens)  0.01 to 100 nM
 1  CCc1ccc(C(=O)Nc2cccnc2)cc1N(C)c1cc2c(cn1)ncn2C  human JAK1 (Homo sapiens)   101 to 500 nM
 2  CCc1cc(C2CN(S(=O)(=O)C(F)F)C2)ncc1N(C)c1cc2c(cn1)ncn2C  human JAK1 (Homo sapiens)  0.01 to 100 nM
 3  Cc1ccc(OCc2ccccc2)cc1N(C)c1cc2c(cn1)ncn2C  human JAK1 (Homo sapiens)   101 to 500 nM
 4       CCc1ccc(COC)cc1N(C)c1cc2c(cn1)ncn2C  human JAK1 (Homo sapiens)   101 to 500 nM
 5  CCc1cc(C(=O)N2CC(C)(C)C2)ccc1N(C)c1cc2c(cn1)ncn2C  human JAK1 (Homo sapiens)       > 1000 nM
 6  COC(=O)NCc1ccc(N(C)c2cc3c(cn2)ncn3C)c(F)c1  human JAK1 (Homo sapiens)  0.01 to 100 nM
 7  Cc1c(OCc2ccc(C#N)nc2)cccc1N(C)c1cc2c(cn1)ncn2C  human JAK1 (Homo sapiens)   101 to 500 nM
 8  CCc1cc(CNS(=O)(=O)N2CC(F)(F)C2)ccc1N(C)c1cc2c(cn1)ncn2C  human JAK1 (Homo sapiens)  0.01 to 100 nM
 9  CCc1cc(O[C@H]2CCN(S(C)(=O)=O)C2)ccc1N(C)c1cc2c(cn1)ncn2C  human JAK1 (Homo sapiens)  0.01 to 100 nM
10  CCc1cc(C(=O)NC2CCCN(C)C2)ccc1N(C)c1cc2c(cn1)ncn2C (stereo not drawn)  human JAK1 (Homo sapiens)  0.01 to 100 nM
11               CCc1ccccc1Oc1cc2c(cn1)ncn2C  human JAK1 (Homo sapiens)  501 to 1000 nM
12  Cc1ccc(OCc2cccnc2)cc1N(C)c1cc2c(cn1)ncn2C  human JAK1 (Homo sapiens)  0.01 to 100 nM
13  CCNC(=O)N1CC=C(c2ccc(N(C)c3cc4c(cn3)ncn4C)c(CC)c2)CC1  human JAK1 (Homo sapiens)  0.01 to 100 nM
14  CCc1cc(-c2cnn(Cc3ccccc3)c2)ccc1N(C)c1cc2c(cn1)ncn2C  human JAK1 (Homo sapiens)  0.01 to 100 nM
15  CCc1cc(-c2ccc(C#N)cc2)ccc1N(C)c1cc2c(cn1)ncn2C  human JAK1 (Homo sapiens)  0.01 to 100 nM
16  CCc1cc(-c2cnn(CC)c2)ccc1N(C)c1cc2c(cn1)ncn2C  human JAK1 (Homo sapiens)  0.01 to 100 nM
17  CCc1cc(C2=CCN(C(=O)N3CCC3)CC2)ccc1N(C)c1cc2c(cn1)ncn2C  human JAK1 (Homo sapiens)  0.01 to 100 nM

* * *

assayed_target: human JAK3 (Homo sapiens, UniProt P52333)
Construct: catalytic domain (amino acids 781-1124; catalog number PV3855)
Sequence (P52333 781-1124): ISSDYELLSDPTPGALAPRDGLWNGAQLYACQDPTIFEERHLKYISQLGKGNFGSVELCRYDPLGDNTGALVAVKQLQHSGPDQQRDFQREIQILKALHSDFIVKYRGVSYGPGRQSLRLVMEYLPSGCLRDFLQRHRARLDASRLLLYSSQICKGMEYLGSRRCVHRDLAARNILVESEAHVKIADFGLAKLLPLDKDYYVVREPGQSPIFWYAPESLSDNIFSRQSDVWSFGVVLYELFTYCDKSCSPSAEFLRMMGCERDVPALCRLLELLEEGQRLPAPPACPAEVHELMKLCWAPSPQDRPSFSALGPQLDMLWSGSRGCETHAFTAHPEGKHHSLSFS
experiment: JAK3 inhibition assay
settings: recombinant human JAK3 catalytic domain; polyGT substrate
pIC50: −log10 of the molar value.
The reader will find reported pIC50 values listed item by item below.
measured_parameter: pIC50

In [3]: df
Out[3]:
                                   compound        result
0  Cc1cc(OCc2ccc(C#N)nc2)ccc1N(C)c1cc2c(cn1)ncn2C        < 6.00
1  CCc1nc(C2CN(C(=O)OC(C)(C)C)C2)cnc1N(C)c1cc2c(cn1)ncn2C        < 6.00
2  CCc1cc(-c2nc(C)no2)ccc1N(C)c1cc2c(cn1)ncn2C        < 6.00
3  CN(c1cc2c(cn1)ncn2C)c1ccc(C2CN(C(=O)N3CCOCC3)C2)cc1OC(F)F        < 6.00
4  CCc1cc(CN2CC(C#N)C2)ccc1N(C)c1cc2c(cn1)ncn2C        < 6.00
5  CCc1cc(C2=CCN(C(=O)CC(C)(C)O)CC2)ccc1N(C)c1cc2c(cn1)ncn2C  6.30 to 7.00
6  CCc1cc(C(C#N)N2CCC(C#N)C2)ccc1N(C)c1cc2c(cn1)ncn2C (centres unmarked)  6.30 to 7.00
7  CCc1cc(CNS(=O)(=O)C2CC2)ccc1N(C)c1cc2c(cn1)ncn2C  6.00 to 6.30

* * *

assayed_target: human JAK3 (Homo sapiens, UniProt P52333)
Construct: catalytic domain (amino acids 781-1124; catalog number PV3855)
experiment: JAK3 inhibition assay
settings: recombinant human JAK3 catalytic domain; polyGT substrate
measured_parameter: IC50

>>> print(df.to_string())
                                    compound  measured_parameter          result
 0  CCc1cc(C2CN(C(=O)C(F)F)C2)ncc1N(C)c1cc2c(cn1)ncn2C                IC50  501 to 1000 nM
 1  CCc1cc(-c2cnn(CC3(C)COC3)c2)ccc1N(C)c1cc2c(cn1)ncn2C                IC50  501 to 1000 nM
 2  CCc1cc(C2=CCN(C(=O)NC)CC2)ccc1N(C)c1cc2c(cn1)ncn2C                IC50  0.01 to 100 nM
 3  CCc1cc(CNS(=O)(=O)CC(F)(F)F)ccc1N(C)c1cc2c(cn1)ncn2C                IC50  0.01 to 100 nM
 4  CCc1cc(C2CN(S(=O)(=O)CC(F)(F)F)C2)ccc1N(C)c1cc2c(cn1)ncn2C                IC50  0.01 to 100 nM
 5  COc1ccc(S(=O)(=O)N2CCCCC2)cc1N(C)c1cc2c(cn1)ncn2C                IC50       > 1000 nM
 6  CCc1cc(C2=CCN(C(=O)OC(C)(C)C)CC2)ccc1N(C)c1cc2c(cn1)ncn2C                IC50       > 1000 nM
 7  CCc1cc(C2=CCN(C(=O)C(C)O)CC2)ccc1N(C)c1cc2c(cn1)ncn2C (centres unmarked)                IC50   101 to 500 nM
 8  CCc1cc(-c2cnc(NC)nc2)ccc1N(C)c1cc2c(cn1)ncn2C                IC50  501 to 1000 nM
 9  CCc1cc(C2=CCN(C(=O)CCC#N)CC2)ccc1N(C)c1cc2c(cn1)ncn2C                IC50   101 to 500 nM
10  CCc1cc(C#N)c(C(F)(F)F)cc1N(C)c1cc2c(cn1)ncn2C                IC50       > 1000 nM
11  CCc1cc(C2(CC#N)COC2)ccc1N(C)c1cc2c(cn1)ncn2C                IC50  0.01 to 100 nM
12  CCc1cc(C(C#N)N2CC(O)C2)ccc1N(C)c1cc2c(cn1)ncn2C (centres unmarked)                IC50   101 to 500 nM
13  CN(c1cc2c(cn1)ncn2C)c1c(F)cc(CNS(C)(=O)=O)cc1F                IC50   101 to 500 nM
14  CCc1cc(C2CN(C(=O)C(F)F)C2)ccc1N(C)c1cc2c(cn1)ncn2C                IC50   101 to 500 nM
15       CCc1cc(CNC)ccc1N(C)c1cc2c(cn1)ncn2C                IC50       > 1000 nM
16  CCc1cc(-c2ccc(Cl)s2)ncc1N(C)c1cc2c(cn1)ncn2C                IC50  0.01 to 100 nM

* * *

assayed_target: human JAK1 (Homo sapiens)
Construct: catalytic domain, amino acids 866-1154; catalog number PV4774; purchased Invitrogen PV4774
experiment: JAK1 inhibition assay (polyGT substrate / Ulight-JAK1 peptide)
Format: biochemical
settings: recombinant human JAK1 catalytic domain; polyGT or Ulight-JAK1 peptide assay
measured_parameter: IC50

>>> df
                                   compound  measured_parameter          result
0  CCc1cc(-c2ccc(C#N)s2)ncc1N(C)c1cc2c(cn1)ncn2C                IC50  0.01 to 100 nM
1  CCc1cc(CN2CC(C)(C)C2)ccc1N(C)c1cc2c(cn1)ncn2C                IC50   101 to 500 nM
2  CCc1cc(N2CC(C(=O)NC)C2)ncc1N(C)c1cc2c(cn1)ncn2C                IC50   101 to 500 nM
3  CCc1cc(-c2cnn(C)c2)ccc1N(C)c1cc2c(cn1)ncn2C                IC50  0.01 to 100 nM
4  CCc1cc(C(C#N)N2CCN(C)CC2)ccc1N(C)c1cc2c(cn1)ncn2C (centres unmarked)                IC50  0.01 to 100 nM
